Tested on: OVCAR-5 ovarian
test.protocol: NCI tumour cell line growth inhibition, 48 h
Each entry below carries its reported GI50.
value.type: GI50

{"compound": "COc1ccc2oc(=O)cc(C3c4ccc([nH]4)C(c4cc(=O)oc5ccc(OC)cc45)c4ccc([nH]4)C(c4cc(=O)oc5ccc(OC)cc45)c4ccc([nH]4)C(c4cc(=O)oc5ccc(OC)cc45)c4ccc3[nH]4)c2c1 (centres undefined)", "assay.value": "2.98 µM"}
{"compound": "O=C(Nc1ccc(-n2ccc3c(NC(=O)c4ccccc4)nccc32)cc1)c1cccc(C(F)(F)F)c1", "assay.value": "3.07 µM"}
{"compound": "CO/N=C(\\COc1ccc2c(=O)cc(-c3ccccc3)oc2c1)c1ccc(F)cc1", "assay.value": "42.1 µM"}
{"compound": "C=CCCCC(=O)CCC(=O)OCC1O[C@@H](O[C@@H]2C(O)[C@@H](OC(C)=O)C(C)O[C@H]2O[C@H](CC=C)CCCCC)C(O)[C@@H](OC(=O)/C(C)=C/C)[C@@H]1OC(=O)/C=C/c1ccccc1 (some centres undefined)", "assay.value": "1.44 µM"}

* * *

Tested on: PC-3 prostate
test.protocol: NCI tumour cell line growth inhibition, 48 h
value.type: TGI (µM)

{"compound": "CCN1CC2(COC)C(O)CC(OC)C34C5CC6(O)C(OC)C=C(C5C6OC(=O)c5ccc(OC)c(OC)c5)C(C(OC)C23)C14 (configuration not stated)", "value.type": "TGI", "comparator": ">", "assay.value": 7.5}
{"compound": "c1cc2ccc3cc2cc1CNCCN1CCNCc2ccc4ccc(cc4c2)CNCCN(CCNC3)CCNCc2ccc3ccc(cc3c2)CNCC1", "value.type": "TGI", "comparator": "=", "assay.value": 6.99}
{"compound": "NCc1ccc(O)c(O)c1", "value.type": "TGI", "comparator": ">", "assay.value": 100}
{"compound": "CC(=O)CC1(O)C(=O)c2c(Br)sc(Br)c2C1=O", "value.type": "TGI", "comparator": "=", "assay.value": 45.4}
{"compound": "O=C(O)c1cccc(CN2CCCCC2)c1", "value.type": "TGI", "comparator": ">", "assay.value": 100}
{"compound": "CC(Cc1ccc(O)cc1)NCC(O)c1ccc(O)c(O)c1 (configuration not stated)", "value.type": "TGI", "comparator": ">", "assay.value": 100}
{"compound": "C=C(C)C(=O)OC1C[C@H](COC(C)=O)C2CC=C(C)C2C2OC(=O)C(=C)[C@H]12 (some centres not stated)", "value.type": "TGI", "comparator": "=", "assay.value": 15.1}
{"compound": "CCCCCCC(C)c1ccc2c(c1)C(=O)c1nc3ccncc3c(=O)n1-2 (configuration not stated)", "value.type": "TGI", "comparator": "=", "assay.value": 16.1}
{"compound": "O=c1[nH]c2ccccc2nc1CBr", "value.type": "TGI", "comparator": "=", "assay.value": 25.1}
{"compound": "CN(C)CCCNC(=S)S", "value.type": "TGI", "comparator": ">", "assay.value": 100}
{"compound": "N#C/C(=C\\c1ccc(Cl)cc1)c1nc(-c2cc3ccccc3oc2=O)cs1", "value.type": "TGI", "comparator": ">", "assay.value": 100}
{"compound": "N#Cc1ccccc1C#C/C=C\\C#Cc1cccs1", "value.type": "TGI", "comparator": ">", "assay.value": 100}
